# Tested on: HL-60
# method summary: NCI tumour cell line growth inhibition, 48 h
The source made the active and inactive calls. Cut-off read from the data, not from the text of the source: active = GI50 up to about 1.1 µM and inactive = higher.
Return exactly one item of yes = active, no = inactive

O=C(O)Cc1ccc(Oc2nc3ccccc3nc2-c2ccccc2)cc1: no

Write down the call the test reported for this compound. Item: CC1(C)CC(=O)c2c([nH]c(=S)c(C#N)c2-c2ccc(Br)cc2)C1 no

Same for Cc1cc(O)c2c(c1)C(C1OC(CO)C(O)C(O)C1O)c1cc(O)cc(O)c1C2=O (centres undefined) no

// next record O=C1CS(=O)(=O)C(c2cccc(Oc3ccccc3)c2)N1c1cccc(Cl)c1 (centres undefined) no

Then Cc1ccc(O)c(C(=O)/C=C/c2ccccc2)c1 ? no

Next: NC(Cc1ccc(S(=O)(=O)O)cc1)C(=O)NC(Cc1ccc(S(=O)(=O)O)cc1)C(=O)NC(Cc1ccc(S(=O)(=O)O)cc1)C(=O)NC(Cc1ccc(S(=O)(=O)O)cc1)C(=O)O (centres undefined) no

What about this compound? COc1cc(NCc2ccc3nc(N)nc(N)c3c2C)cc(OC)c1OC yes

Okay, and COc1cc2c3c(c1OC)-c1ccccc1C(C(OC(C)=O)c1ccccc1)C3N(C)CC2 (centres undefined) ? no

Also, N#C/C(=C\c1ccc[nH]1)C(=O)c1ccccc1 please. no
